Data origin, for the record: the supplement of paper PMC11417369

Overview of reported gcPBM binding intensity (ln) across a group of sequences:
tested on: PfSIP2 AP2 domain 1 (GST-tagged); assay: gcPBM binding intensity (ln(normalized median fluorescence intensity)); higher = stronger DNA binding
In all, about 25,000 sequences were measured (“ln(normalized median fluorescence intensity)”: median about 7.1, highest 2% from about 10 on). The sample holds the highest values, similar sequences and a random draw of the others, so the mix is not that of the screen.
measure: gcPBM binding intensity (ln)

>  <sequence_entry>
TGTCAATCATATAAATGTACATTTTAAATGAGGTGT [XGTACX_site7391]

>  <measure>
gcPBM binding intensity (ln)

>  <meas_value>
7.36

$$$$
>  <sequence_entry>
AAAAAAAAAATTTAGGTGCATACAAATAAATTATAT [GTGCAC_site9521]

>  <measure>
gcPBM binding intensity (ln)

>  <meas_value>
9.85

$$$$
>  <sequence_entry>
ACTTTAACCTGAACGGTGCATAAAATTTTGGCATTA

>  <measure>
gcPBM binding intensity (ln)

>  <meas_value>
10.8

$$$$
>  <sequence_entry>
AATATTTGTTAAAGAGGTACACCATTTGGTAGGGAA [XGTACX_site2165]

>  <measure>
gcPBM binding intensity (ln)

>  <meas_value>
7.06

$$$$
>  <sequence_entry>
TAAGAGTAGTTATATACACACATGTATATTATAGTT [CACACA_site6815]

>  <measure>
gcPBM binding intensity (ln)

>  <meas_value>
6.84

$$$$

* * *

system: PfSIP2 AP2 domain 1 (GST-tagged); assay: gcPBM binding intensity (ln(normalized median fluorescence intensity)); higher = stronger DNA binding
The full ranking holds about 25,000 sequences; the median of “ln(normalized median fluorescence intensity)” is about 7.1, and the highest 2% start at about 10. This excerpt belongs to a sample that is enriched for the highest values.

>  <sequence_entry>
ACATATTATATATGTGTGCACATATATATATATTTA [GTGCAC_site9591]

>  <gcPBM binding intensity (ln)>
8.7

$$$$
>  <sequence_entry>
TTTATTTATGTGTGGGTGCATATACGTATGATGTAT

>  <gcPBM binding intensity (ln)>
10.6

$$$$
>  <sequence_entry>
ATTTATATATATGTATGTACGTATGTGTGTATATGT [XGTACX_site7587]

>  <gcPBM binding intensity (ln)>
7.73

$$$$
>  <sequence_entry>
TATATATATTTTTGTGTGCACTATAATATGAAAATA

>  <gcPBM binding intensity (ln)>
10.8

$$$$
>  <sequence_entry>
CAAAATTAATAAGTCACACACACATCTATAATATAT [CACACA_site6519]

>  <gcPBM binding intensity (ln)>
6.78

$$$$
>  <sequence_entry>
AAATTATATTATTGAACACACGTTTGGTAATGTTTT [CACACA_site5469]

>  <gcPBM binding intensity (ln)>
6.78

$$$$
>  <sequence_entry>
TAATTACACTTTAAAAGTACATATATAATAACATTA [XGTACX_site379]

>  <gcPBM binding intensity (ln)>
7.04

$$$$
>  <sequence_entry>
AATATTTCTCATTTTGTGCACTGAAAAATGTAATAT

>  <gcPBM binding intensity (ln)>
10.2

$$$$
>  <sequence_entry>
AAATTTAACAACTTCAAACACACAATATATATATAT [CACACA_site2092]

>  <gcPBM binding intensity (ln)>
8.91

$$$$
>  <sequence_entry>
AATATAAGAATATATACACACATAAATACATACATA [CACACA_site4128]

>  <gcPBM binding intensity (ln)>
7.01

$$$$
>  <sequence_entry>
TTAATTTATAAAAACACACACAGGTAAAAAGGTGCA [CACACA_site1177]

>  <gcPBM binding intensity (ln)>
9.31

$$$$
>  <sequence_entry>
ATCATATTTTTATGTGTGCACTTTTTTTTTTTTTTT [GTGCAC_site9555]

>  <gcPBM binding intensity (ln)>
10.8

$$$$
>  <sequence_entry>
CCTTTCCTTTTATAAGTGCATATAACAAATGTATAC [GTGCAC_site9872]

>  <gcPBM binding intensity (ln)>
8.88

$$$$
>  <sequence_entry>
ATTTCCCCAACGTGGGTGCATATATTTATGTGTGAA [GTGCAC_site9439]

>  <gcPBM binding intensity (ln)>
11.1

$$$$
>  <sequence_entry>
ATAATAAAAAAAAATGCACACATATATATATATATA [CACACA_site8766]

>  <gcPBM binding intensity (ln)>
9.29

$$$$
>  <sequence_entry>
AAGAAAATATATTCACATGAAGAATTAAAATAAAAC [TGCATGCA_negctrl_site119]

>  <gcPBM binding intensity (ln)>
7.14

$$$$
>  <sequence_entry>
ATATATTTTATATGTGTGCACTATATATATATATAT

>  <gcPBM binding intensity (ln)>
10.2

$$$$
>  <sequence_entry>
TATTTATATGTATATACATGCACATATATATGAAAC [TGCATGCA_site1005]

>  <gcPBM binding intensity (ln)>
7.7

$$$$
>  <sequence_entry>
TATATATATATATTCACACATAAAAATAAAATAAAA [CACACA_site4774]

>  <gcPBM binding intensity (ln)>
8.88

$$$$
>  <sequence_entry>
ACGTAAACATGTAGAAGGCATTACACAATGGTATAC [TGCATGCA_negctrl_site512]

>  <gcPBM binding intensity (ln)>
6.75

$$$$
>  <sequence_entry>
AAAATATAATATAATGCACACATAAAAAAAAAAAAA [CACACA_site7989]

>  <gcPBM binding intensity (ln)>
7.19

$$$$
>  <sequence_entry>
AAAATACATGGACACACACACACACCGATATATATA [CACACA_site5885]

>  <gcPBM binding intensity (ln)>
7.4

$$$$
>  <sequence_entry>
TTTTTTAAAAGAAAATAAAAAATAAGCATAATATGA [CACACA_negctrl_site1574]

>  <gcPBM binding intensity (ln)>
7.06

$$$$
>  <sequence_entry>
TAATATAAAGGAAAAGAAAAGAAAAGAATATACAAT [CACACA_negctrl_site1369]

>  <gcPBM binding intensity (ln)>
6.69

$$$$
>  <sequence_entry>
TATATATATATGTGCACACATAAAGATATTATTTTT [CACACA_site3733]

>  <gcPBM binding intensity (ln)>
9.51

$$$$
>  <sequence_entry>
TCTTTAAAAAAAAAAAAAAAAAATTCCAAATAAATA [TGCATGCA_negctrl_site538]

>  <gcPBM binding intensity (ln)>
6.72

$$$$
>  <sequence_entry>
TAAACATAAATATGCACACATATACATATATTCATA [CACACA_site2667]

>  <gcPBM binding intensity (ln)>
7.34

$$$$
>  <sequence_entry>
AAATATAATAATATATGTACATATATATATATATAT [XGTACX_site6980]

>  <gcPBM binding intensity (ln)>
9.73

$$$$
>  <sequence_entry>
AATATATTTATGCTCATGCACTTTTTTTTTTTTTTT [GTGCAC_site9654]

>  <gcPBM binding intensity (ln)>
8.89

$$$$
>  <sequence_entry>
ATAATGAACAAAGTAGTGCACTTTCCTTATCTTTTC

>  <gcPBM binding intensity (ln)>
10.9

$$$$
>  <sequence_entry>
AAATAATTAGAAATAGTGCACATAATTAAGGGATAC

>  <gcPBM binding intensity (ln)>
10.1

$$$$
>  <sequence_entry>
ATATGAAACATGAAGGTGCATAATGTGTATATTTAT

>  <gcPBM binding intensity (ln)>
10.8

$$$$
>  <sequence_entry>
TTCTCCTAATAGTTAGTGCACTACATAACTAAGAAA

>  <gcPBM binding intensity (ln)>
10.8

$$$$
>  <sequence_entry>
ACTAATAACAAAAGCTTGCACTTTTTTTTTCCTAAT

>  <gcPBM binding intensity (ln)>
7.82

$$$$
>  <sequence_entry>
AATGACTACATAATAGTGCAATATTAAAGAAAATTA

>  <gcPBM binding intensity (ln)>
8.55

$$$$
>  <sequence_entry>
AATAGGTGCCTTTTTTCACACACATGTCAACTAAAT [CACACA_site8846]

>  <gcPBM binding intensity (ln)>
9.34

$$$$
>  <sequence_entry>
AATTTTTTTTTTTTTTTTTTTTATATATGTGTGTGT [XGTACX_negctrl_site129]

>  <gcPBM binding intensity (ln)>
7.29

$$$$
>  <sequence_entry>
TATTTATATTTATACACACACACAAAAAAAAAAAAA [CACACA_site6817]

>  <gcPBM binding intensity (ln)>
7.22

$$$$
>  <sequence_entry>
ATTTTTTTTTTTTTATGTACATATTAAAAAAAATAT [XGTACX_site1829]

>  <gcPBM binding intensity (ln)>
7.01

$$$$
>  <sequence_entry>
TATATATATATATTCACACATAAATATATGCACCCA [CACACA_site4263]

>  <gcPBM binding intensity (ln)>
11.6

$$$$
